- target-entity: human notum pectinacetyltransferase (Homo sapiens, UniProt Q6P988)
- Construct: made in house; unpurified conditioned medium used
- measurement-description: Binding assay (OPTS esterase substrate, fluorimetric)
- Assay type: biochemical
- test-settings: class symbols
Each entry below carries its recorded IC50.

The examples below pair each entry with its known result.
>  <molecule>
O=C(O)c1cc2c(s1)-c1c(F)cc(F)cc1SC2

>  <IC50>
< 1000 nM

$$$$
>  <molecule>
NC(=O)c1cc2c(s1)-c1ccsc1CC2

>  <IC50>
< 50 nM

$$$$
>  <molecule>
NC(=O)c1cc2c(s1)-c1cc(F)cc(F)c1SC2

>  <IC50>
< 50 nM

$$$$

Attention now shifts to the item below.
Could you share which IC50 value was measured for COc1ccc2c(c1Cl)CCc1cc(C(=O)N3CCC(OC)C3)sc1-2 (stereo not drawn) ?
< 50 nM

* * *

- target-entity: human notum pectinacetyltransferase (Homo sapiens)
- Construct: made in house; unpurified conditioned medium used
- measurement-description: Reporter assay (CellSensor LEF/TCF-bla FreeStyle 293F cells, Wnt3a and notum conditioned media)
- Type: cell-based
- test-settings: class symbols
pEC50: −log10 of the molar value.
measure: pEC50

>  <compound>
O=C(O)c1cc2c(s1)-c1ccc(F)cc1SC2

>  <measure>
pEC50

>  <observed>
> 7.30

$$$$

Tell me reported pEC50 for `O=C(O)c1cc2c(s1)-c1ccc(Cl)cc1OC2` , tested with human notum pectinacetyltransferase (Homo sapiens).
> 7.30

Tell me reported pEC50 for `O=C(O)c1cc2c(s1)-c1cc(F)c(F)cc1S(=O)(=O)C2` , tested with human notum pectinacetyltransferase (Homo sapiens).
> 6.30

Tell me reported pEC50 for `N#Cc1cc2c(cc1F)OCc1cc(C(=O)O)sc1-2` , tested with human notum pectinacetyltransferase (Homo sapiens).
> 7.00

Tell me reported pEC50 for `O=C(O)c1cc2c(s1)-c1cccc(F)c1CC2` , tested with human notum pectinacetyltransferase (Homo sapiens).
> 7.30

Tell me reported pEC50 for `Cc1cc(F)c2c(c1)-c1sc(C(N)=O)cc1CC2` , tested with human notum pectinacetyltransferase (Homo sapiens).
> 7.30

* * *

- target-entity: human notum pectinacetyltransferase (Homo sapiens)
- Construct: made in house; unpurified conditioned medium used
- measurement-description: Reporter assay (CellSensor LEF/TCF-bla FreeStyle 293F cells, Wnt3a and notum conditioned media)
- Assay type: cell-based
- test-settings: given as numeric bound above the legend's highest class
measure: EC50

Tell me reported EC50 for `CCOC(=O)c1cc2c(s1)-c1cc(OC)ccc1CC2` , tested with human notum pectinacetyltransferase (Homo sapiens).
> 1 µM

* * *

- target-entity: human notum pectinacetyltransferase (Homo sapiens, UniProt Q6P988)
- Construct: made in house; unpurified conditioned medium used
- Sequence (Q6P988 20-496): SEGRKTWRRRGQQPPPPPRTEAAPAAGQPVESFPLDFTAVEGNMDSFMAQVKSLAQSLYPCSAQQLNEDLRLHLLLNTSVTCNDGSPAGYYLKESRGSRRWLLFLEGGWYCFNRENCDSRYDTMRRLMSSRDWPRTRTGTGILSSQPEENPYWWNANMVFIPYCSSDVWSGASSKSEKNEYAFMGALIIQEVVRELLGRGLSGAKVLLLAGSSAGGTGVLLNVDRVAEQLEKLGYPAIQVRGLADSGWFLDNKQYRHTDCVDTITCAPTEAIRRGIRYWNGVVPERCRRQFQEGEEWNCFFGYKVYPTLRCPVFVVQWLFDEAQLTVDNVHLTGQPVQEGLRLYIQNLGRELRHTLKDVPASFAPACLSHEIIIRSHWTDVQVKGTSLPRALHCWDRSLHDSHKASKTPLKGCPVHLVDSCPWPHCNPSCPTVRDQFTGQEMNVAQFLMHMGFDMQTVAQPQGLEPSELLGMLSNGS
- measurement-description: Binding assay (OPTS esterase substrate, fluorimetric)
- Type: biochemical
- test-settings: class symbols
measure: IC50

The examples below pair each entry with its known result.
>  <compound>
O=C(O)c1cc2c(s1)-c1ccc(C(F)(F)F)cc1OC2

>  <measure>
IC50

>  <observed>
< 1000 nM

$$$$
>  <compound>
COC1CCN(C(=O)c2cc3c(s2)-c2cc(F)cc(F)c2SC3)C1 (stereo not drawn)

>  <measure>
IC50

>  <observed>
< 100 nM

$$$$
>  <compound>
CC(=O)N1Cc2cc(C(=O)O)sc2-c2ccccc21

>  <measure>
IC50

>  <observed>
< 2000 nM

$$$$
>  <compound>
CNC(=O)c1cc2c(s1)-c1ccccc1CC2

>  <measure>
IC50

>  <observed>
< 100 nM

$$$$
>  <compound>
CC1Cc2cc(C(=O)O)sc2-c2cc(F)cc(F)c21 (stereo not drawn)

>  <measure>
IC50

>  <observed>
< 50 nM

$$$$
>  <compound>
Cc1cc(Cl)cc2c1OCc1cc(C(=O)O)sc1-2

>  <measure>
IC50

>  <observed>
< 1000 nM

$$$$
>  <compound>
COCCNC(=O)c1cc2c(s1)-c1cccc(F)c1CC2

>  <measure>
IC50

>  <observed>
< 100 nM

$$$$
>  <compound>
O=C(O)c1cc2c(s1)-c1ccc(F)cc1OC2

>  <measure>
IC50

>  <observed>
< 2000 nM

$$$$

Could you share which IC50 value was measured for `O=C(O)c1cc2c(s1)-c1ccccc1CCC2` ?
< 1000 nM

Could you share which IC50 value was measured for `NC(=O)c1cc2c(s1)-c1cc(Cl)cc(Cl)c1SC2` ?
< 2000 nM

Could you share which IC50 value was measured for `O=C(O)c1cc2c(s1)-c1cc(F)ccc1CCC2` ?
< 1000 nM

Could you share which IC50 value was measured for `CN(C)c1ccc2c(c1)CCc1cc(C(N)=O)sc1-2` ?
< 2000 nM

Could you share which IC50 value was measured for `NC(=O)c1cc2c(s1)-c1ccc(F)c(F)c1CC2` ?
< 50 nM

Could you share which IC50 value was measured for `CC1(C)Cc2cc(C(=O)O)sc2-c2cc(F)c(F)cc21` ?
< 2000 nM

Could you share which IC50 value was measured for `Cc1c(F)ccc2c1OCc1cc(C(N)=O)sc1-2` ?
< 50 nM

Could you share which IC50 value was measured for `O=C(O)c1cc2c(s1)-c1cc(F)c(Cl)cc1SC2` ?
< 100 nM

Could you share which IC50 value was measured for `O=C(O)CNC(=O)c1cc2c(s1)-c1ccccc1CC2` ?
< 100 nM

Could you share which IC50 value was measured for `NC(=O)c1cc2c(s1)-c1ccc(Cl)c(Cl)c1SC2` ?
< 100 nM

Could you share which IC50 value was measured for `Cc1ccc2c(c1F)CCc1cc(C(=O)O)sc1-2` ?
< 100 nM

Could you share which IC50 value was measured for `Cc1cc2c(cc1Cl)-c1sc(C(=O)O)cc1CO2` ?
< 1000 nM

Could you share which IC50 value was measured for `O=C(O)c1cc2c(s1)-c1ccc(F)cc1SC2` ?
< 1000 nM
